# assay-overview: method code SF-AS, from DOI: 10.1016/0378-5173(86)90115-8

compound-smiles | logP
CCCCC(=O)N(C)c1ccc(S(=O)(=O)N(C)C)cc1 | 1.63
CN(C(=O)CCC#N)c1ccc(S(=O)(=O)N(C)C)cc1 | -0.17
CN(C(=O)CCO)c1ccc(S(=O)(=O)N(C)C)cc1 | -0.26

###

# assay-overview: method code SF, from DOI: 10.1021/js9700917, PMID: 9452977
# condition-summary: pH 5.5
reported-metric: logD

compound-smiles | recorded-value
CC(=O)Nc1ccc(S(=O)(=O)Nc2nc(C)c(C)o2)cc1 | 0.46
NS(=O)(=O)c1ccncn1 | -0.2
CC(=O)Nc1ccc(S(=O)(=O)Nc2cc(C)nc(C)n2)cc1 | -0.14
NC(=S)NS(=O)(=O)c1ccc(N)cc1 | 0.52

Where do the numbers come from? From the SangsterLogP compilation.
